# methodNotes: Inhibitory activity against phytohemagglutininin A-induced proliferation of human lymphocytes
# Assay type: functional
readoutKind: IC50 (µM)

>>> assayresult("COc1ccc(C(=O)/C=C/c2cccc(N(C)C)c2)c(OC)c1OC")
26
>>> assayresult("CCCCOc1ccc(C(=O)/C=C/c2cc(OC)cc(OC)c2)cc1")
52
>>> assayresult("C=CCOc1ccc(C(=O)/C=C/c2ccc(OC)c(OC)c2)cc1")
51
>>> assayresult("COc1cc(O)ccc1/C=C/C(=O)c1ccc(N(C)C)cc1")
111
>>> assayresult("O=C(/C=C/c1ccc(O)c(O)c1)c1ccc(O)cc1O [BUTEIN]")
16
>>> assayresult("COc1cc(/C=C/C(=O)c2ccccc2O)cc(OC)c1")
8.1
>>> assayresult("O=C(/C=C/c1ccccc1)c1ccc(O)cc1 [4'-HYDROXYCHALCONE]")
28
>>> assayresult("COc1ccc(OC)c(/C=C/C(=O)c2ccc(O)cc2)c1")
22
>>> assayresult("COc1cccc(OC)c1/C=C/C(=O)c1ccc(O)cc1")
60
>>> assayresult("CN(C)c1ccc(/C=C/C(=O)c2ccc(O)cc2)cc1")
130
>>> assayresult("COc1cc(/C=C/C(=O)c2ccccc2[N+](=O)[O-])cc(OC)c1")
3.7
>>> assayresult("CCCCOc1ccccc1/C=C/C(=O)c1ccc(OC)c(OC)c1OC")
52
>>> assayresult("COc1cc(/C=C/C(=O)c2ccccc2F)cc(OC)c1")
6
>>> assayresult("COc1ccc(C(=O)/C=C/c2ccccc2F)c(OC)c1OC")
11
>>> assayresult("COc1ccc(/C=C/C(=O)c2ccc(OC)cc2)cc1 [4,4'-DIMETHOXYCHALCONE]")
112
>>> assayresult("COc1ccc(C(=O)/C=C/c2ccccc2[N+](=O)[O-])c(OC)c1OC")
7
>>> assayresult("COc1cccc(C(=O)/C=C/c2ccc(OC)cc2OC)c1")
42
>>> assayresult("CCCc1cc(/C=C/C(=O)c2ccc(O)cc2)c(OC)cc1O")
41
>>> assayresult("COc1ccc(C(=O)/C=C/c2ccc(F)cc2F)c(OC)c1")
12
>>> assayresult("COc1cc(/C=C/C(=O)c2ccc(O)cc2)cc(OC)c1")
14
>>> assayresult("COc1ccc(/C=C/C(=O)c2ccc(F)cc2F)c(OC)c1")
74
